# Target Of Assay: 3-oxo-5-alpha-steroid 4-dehydrogenase 1 (Rattus norvegicus)
# Sequence (whole entry): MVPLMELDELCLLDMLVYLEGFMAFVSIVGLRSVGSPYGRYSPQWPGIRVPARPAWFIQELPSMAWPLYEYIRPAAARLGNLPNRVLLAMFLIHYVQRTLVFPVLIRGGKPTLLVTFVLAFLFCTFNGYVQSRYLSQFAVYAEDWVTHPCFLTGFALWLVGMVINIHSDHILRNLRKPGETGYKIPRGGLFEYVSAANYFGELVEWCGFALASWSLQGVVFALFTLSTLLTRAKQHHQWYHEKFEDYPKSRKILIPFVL
# Assay Protocol: In vitro inhibitory activity against rat prostatic 5-alpha-reductase (150 ng/tube)
Each record gets a class by inhibition: Low (below 40%), Medium (40% to below 90%), High (90% or more)

{"columns": ["Molecule", "Target Of Assay", "Qualitative Label"],
 "data": [
  ["CC(=O)[C@H]1CC[C@H]2[C@@H]3CC[C@H]4CS(=O)(=O)C[C@]4(C)[C@H]3CC[C@]12C (stereo in doubt; 42)", "3-oxo-5-alpha-steroid 4-dehydrogenase 1 (Rattus norvegicus)", "Low"],
  ["CC(=O)N[C@@H]1CC[C@H]2[C@@H]3CCC4N(C)C(=O)CC[C@]4(C)[C@H]3CC[C@]12C (stereo partly drawn)", "3-oxo-5-alpha-steroid 4-dehydrogenase 1 (Rattus norvegicus)", "Medium"],
  ["CN1C(=O)CCC2C3CCC4(C)C(CC[C@@H]4O)C3CCC21 (stereo partly drawn)", "3-oxo-5-alpha-steroid 4-dehydrogenase 1 (Rattus norvegicus)", "Medium"],
  ["CCN(CC)C(=O)[C@H]1CCC2C3CCC4N(C)/C(=N/O)CCC4(C)C3CCC21C (stereo partly drawn)", "3-oxo-5-alpha-steroid 4-dehydrogenase 1 (Rattus norvegicus)", "Medium"],
  ["CC(=O)O[C@H]1CCC2C3CC[C@H]4CC(=O)NCC4(C)C3CCC21C (stereo partly drawn)", "3-oxo-5-alpha-steroid 4-dehydrogenase 1 (Rattus norvegicus)", "Low"]
]}

Incoming: Field: class (inhibition) — entry: CC12COC(=O)C=C1CCC1C2CCC2(C)C1CC[C@]2(C)O (stereo partly drawn)
Outgoing: Low

Incoming: CCN(CC)C(=O)/C=C1\CC[C@H]2[C@@H]3CCC4N(C)C(=O)CC[C@]4(C)[C@H]3CC[C@]12C (stereo partly drawn) ?
Outgoing: High

Incoming: CN1C(=O)CCC2(C)C1=CCC1C2CCC2(C)C1CC[C@@H]2O (stereo partly drawn) ?
Outgoing: Low

Incoming: CCN(CC)C(=O)[C@H]1CC[C@H]2[C@@H]3CC[C@@H]4NC(=O)CC[C@]4(C)[C@H]3CC[C@]12C ?
Outgoing: High

Incoming: CCN(CC)C(=O)[C@H]1CCC2C3CCC4N(C)CCCC4(C)C3CCC21C (stereo partly drawn) ?
Outgoing: Medium
